test system: SF-268 CNS; experiment: NCI tumour cell line growth inhibition, 48 h
VALUE_TYPE: TGI

[[record]]
compound = "O=C(C[n+]1ccccc1)N/N=C(\\Cc1nc2ccc([N+](=O)[O-])cc2[nH]c1=O)C(=O)Nc1cc(Cl)c(Cl)cc1Cl"
study_system = "SF-268 CNS"
value_type = "TGI"
reading = "> 100 µM"

[[record]]
compound = "Fc1ccc(-c2ncn(C3CCNCC3)c2-c2ccnc(Oc3ccc(F)c(F)c3)n2)cc1"
study_system = "SF-268 CNS"
value_type = "TGI"
reading = "> 25 µM"

[[record]]
compound = "CC(=O)NNc1nc(C)c(C(/C=C/c2ccc([N+](=O)[O-])cc2)=N/NC(N)=S)s1"
study_system = "SF-268 CNS"
value_type = "TGI"
reading = "> 100 µM"

[[record]]
compound = "O=C1NC(N2CCCCC2)=N/C1=C\\c1cccs1"
study_system = "SF-268 CNS"
value_type = "TGI"
reading = "> 100 µM"

[[record]]
compound = "CC1(C)CC23CC(C)(C)c4cccc(c42)OCc2ccc4ccc5ccc(nc5c4n2)COc2cccc1c23"
study_system = "SF-268 CNS"
value_type = "TGI"
reading = "> 50 µM"

[[record]]
compound = "NC(=O)c1coc(C2OC(CO)C(O)C2O)n1 (centres undefined)"
study_system = "SF-268 CNS"
value_type = "TGI"
reading = "> 100 µM"

[[record]]
compound = "Cc1ccc(NC(=O)C(=O)CC(=O)C2CCOC2=O)c(C)c1 (centres undefined)"
study_system = "SF-268 CNS"
value_type = "TGI"
reading = "> 100 µM"

[[record]]
compound = "O=c1[nH]c2cc([N+](=O)[O-])ccc2nc1/C(=N/Nc1ccccc1)C(O)c1ccc(C(O)/C(=N\\Nc2ccccc2)c2cnc3cc([N+](=O)[O-])ccc3n2)cc1 (centres undefined)"
study_system = "SF-268 CNS"
value_type = "TGI"
reading = "> 100 µM"

[[record]]
compound = "CN1CCN(c2cc(C(=O)Nc3cc4cc(-c5cnn(C)c5)ccc4cn3)ccn2)CC1"
study_system = "SF-268 CNS"
value_type = "TGI"
reading = "6.59 µM"


* * *

test system: DLD-1 colon; assay: NCI tumour cell line growth inhibition, 48 h
VALUE_TYPE: TGI

[[record]]
molecule = "O=S(=O)(SCc1ccccc1)C(c1ccccc1)c1ccccc1"
study_system = "DLD-1 colon"
reading = "55.4 µM"

[[record]]
molecule = "CC(C)(C)NC(=O)NC12CC3CC(CC(F)(C3)C1)C2"
study_system = "DLD-1 colon"
reading = "> 100 µM"

[[record]]
molecule = "CCN(CC)CCCNc1ncc(C)c2[nH]c3ccncc3c12"
study_system = "DLD-1 colon"
reading = "> 79.9 µM"

[[record]]
molecule = "COc1ccc(C2Oc3cc(OC)c(O)c(C)c3[C@H]2C)cc1 (some centres not stated)"
study_system = "DLD-1 colon"
reading = "> 100 µM"

[[record]]
molecule = "O=C(Cc1csc(-c2nc(CC(=O)NNc3ccccc3)cs2)n1)NNc1ccccc1"
study_system = "DLD-1 colon"
reading = "> 100 µM"

[[record]]
molecule = "O=C(CC1(O)C(=O)Nc2ccccc21)c1ccco1 (configuration not stated)"
study_system = "DLD-1 colon"
reading = "> 100 µM"

[[record]]
molecule = "COC(=O)c1cccc(N[C@@H]2c3cc4c(cc3C(c3cc(OC)c(O)c(OC)c3)[C@H]3C(=O)OCC32)OCO4)c1 (some centres not stated)"
study_system = "DLD-1 colon"
reading = "15 µM"

[[record]]
molecule = "S=P1(N2CCCCC2)Oc2ccc3ccccc3c2-c2c(ccc3ccccc23)O1"
study_system = "DLD-1 colon"
reading = "> 100 µM"

[[record]]
molecule = "Cc1ccc(NC(=O)C(=O)CC(=O)C2CCOC2=O)c(C)c1 (configuration not stated)"
study_system = "DLD-1 colon"
reading = "> 100 µM"

[[record]]
molecule = "CN1C(c2ccccc2)CS(=O)(=O)CS1(=O)=O (configuration not stated)"
study_system = "DLD-1 colon"
reading = "> 100 µM"

[[record]]
molecule = "Clc1ccccc1C1=NN(c2ccccc2)C2c3ccccc3OCC12 (configuration not stated)"
study_system = "DLD-1 colon"
reading = "> 100 µM"

[[record]]
molecule = "CC(C)C1CC2C(=O)N(c3ccccc3)C(=O)C2c2[nH]c3ccccc3c21 (configuration not stated)"
study_system = "DLD-1 colon"
reading = "> 100 µM"

